# TARGET DESC: Aromatase (Homo sapiens)
# Sequence (P11511 whole entry): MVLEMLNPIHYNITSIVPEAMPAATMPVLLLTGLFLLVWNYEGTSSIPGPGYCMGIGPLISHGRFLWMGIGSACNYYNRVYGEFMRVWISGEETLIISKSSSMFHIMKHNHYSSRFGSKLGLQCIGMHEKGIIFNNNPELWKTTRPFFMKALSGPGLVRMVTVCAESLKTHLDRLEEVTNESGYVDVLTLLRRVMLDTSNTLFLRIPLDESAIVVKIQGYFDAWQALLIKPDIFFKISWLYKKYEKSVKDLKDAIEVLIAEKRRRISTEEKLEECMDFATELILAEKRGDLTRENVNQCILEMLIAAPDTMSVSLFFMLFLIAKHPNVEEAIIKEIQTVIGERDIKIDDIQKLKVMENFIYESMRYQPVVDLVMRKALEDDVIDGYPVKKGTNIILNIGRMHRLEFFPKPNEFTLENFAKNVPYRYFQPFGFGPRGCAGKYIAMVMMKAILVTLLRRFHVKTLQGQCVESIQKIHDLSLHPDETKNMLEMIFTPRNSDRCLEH
# ASSAY PROCEDURE: Aromatase activity in JEG3 cells (Protocol 6)
# EXPERIMENTAL PARAMETERS: intact JEG3 cells, [1β-3H]androstenedione, 30 min
pIC50: −log10 of the molar value.
MEASURED PROPERTY: pIC50

Example compounds with recorded pIC50:
N#Cc1ccc(N(Cc2c(F)cc(OS(N)(=O)=O)cc2F)n2cnnc2)cc1-c1ccccc1 [PMW04153] : > 10.00
N#Cc1ccc(N(Cc2ccc(OS(N)(=O)=O)cc2)n2cnnc2)cc1Cc1ccccc1 [Compound 13] : > 10.00
N#Cc1ccc(N(CCC(=O)c2ccc(OS(N)(=O)=O)cc2)n2cnnc2)cc1-c1ccccc1 [Compound 29] : > 10.00

Which value of pIC50 has been reported for N#Cc1ccc(N(Cc2ccc(Br)cc2)n2cnnc2)cc1-c1ccccc1 [Compound 1] in the records?
> 10.00

For N#Cc1ccc(N(Cc2ccc(O)cc2)n2cnnc2)cc1Cc1ccccc1 [Compound 12] , what is its reported pIC50?
> 10.00
